# SUBJECT_OF_TEST: T1, recombinant, soluble human ASGR-1 (human, UniProt P07306 62-291)
# T1 construct: biotinylated in the binning assay; also called soluble huASGR-1; Soluble ASGR-1 (Amgen)
# T1 sequence: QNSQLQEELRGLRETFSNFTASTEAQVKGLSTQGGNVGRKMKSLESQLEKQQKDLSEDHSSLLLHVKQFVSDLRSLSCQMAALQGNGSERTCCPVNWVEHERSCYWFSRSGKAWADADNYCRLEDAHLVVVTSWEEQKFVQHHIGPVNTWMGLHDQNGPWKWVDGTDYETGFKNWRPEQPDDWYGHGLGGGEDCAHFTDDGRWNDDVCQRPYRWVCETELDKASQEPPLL
# ASSAY_OVERVIEW: Octet BLI dissociation, pH 5.6 minus calcium
PROPERTY_MEASURED: % Change Compared to pH 7.4 + Calcium (%)
Give the quantity in %, number only.

BINDER	ASSAY_VALUE
52H2 (antibody, V domains shown, hybridoma mAb) VH: EVQLLESGGGLVQPGGSLRLSCAASGFTFSRNAMSWVRQAPGMGLEWVSAISGRGGNTFYADSVKGRFTVSRDNSKNTLFLQMNSLRAEDTAVYYCAKNGREQWLDYWGQGTLVTVSS VL: DIQMTQSPSSVSASVGDRVTITCRASQNITNWLAWFQQKPGRAPKLLIYTTSSLQSGVPSRFSGSGSGTDFTLTISSLQPEDFATYCCQQTNSFPWTFGHGTKVEVK	32

Turning now to a further record.
Which measured % Change Compared to pH 7.4 + Calcium value corresponds to 192C10 (antibody, V domains shown, hybridoma mAb) VH: QVQLVESGGGVVQPGRSLRLSCASSGFTFRNYGMHWVRQAPGKGLKWVAVIWFDGSNDYYADSVKGRFTISRDNSKNTLSLQMNSLRAEDTAVYYCARDRSVGYDGLDVWGQGTTVTVSS VL: DIQMTQSPSSLSASVGDRVTITCRASQGIGKYLAWFQQKPGKAPKSLIYAASSLQSGVPSKFSGSGSGTDFTLTISSLQPDDFATYYCQRYDTYPFTFGPGTKVDFK ?
-6
